Biological target: D189A mutant hMC4R, N-terminal FLAG-tagged (human, UniProt P32245 1-332, D189A)
Sequence (P32245 whole entry D189A): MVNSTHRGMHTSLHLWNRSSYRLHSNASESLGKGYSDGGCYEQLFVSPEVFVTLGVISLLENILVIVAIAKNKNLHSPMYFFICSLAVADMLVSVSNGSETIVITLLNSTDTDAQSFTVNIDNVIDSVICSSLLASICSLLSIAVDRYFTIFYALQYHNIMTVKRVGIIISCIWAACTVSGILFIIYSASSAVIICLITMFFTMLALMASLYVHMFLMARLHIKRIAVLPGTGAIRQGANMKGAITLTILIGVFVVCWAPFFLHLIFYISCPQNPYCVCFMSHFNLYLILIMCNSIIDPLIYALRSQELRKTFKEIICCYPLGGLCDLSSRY
Assay: radioligand binding
pIC50: −log10 of the molar value.
quantity: pIC50

Exercise: I'd like to know its pIC50. The binder in question is RCVRLHESCLGQQVPCCDPCATCYCRFFNAFCYCRKLGTAMNPCSRT (domain or fragment, UniProt O00253 86-132, looked up) [human agouti-related protein hAGRP(86–132)]
Solution: < 6.00
